molecular target: UniProt Q29010; assay: The compound was tested for binding inhibitory activity against Endothelin A receptor from porcine aortic smooth muscle membranes.
Where a SMILES comes first, the peptide text is derived from it.
valueType: IC50 max (nM)

Known results for compounds:
{"columns": ["compound", "assayedSystem", "uom", "measuredValue"],
 "data": [
  ["CC(C)C[C@H]1NC(=O)[C@H](C(C)C)NC(=O)[C@H]2C[C@@H](O)CN2C(=O)[C@H](CC(=O)O)NC(=O)[C@H](Cc2c[nH]c3ccccc23)NC1=O", "UniProt Q29010", "nM", 18],
  ["CC[C@H](C)[C@H]1NC(=O)[C@H](C)NC(=O)[C@@H](CCC(=O)O)NC(=O)[C@@H](Cc2c[nH]c3ccccc23)NC(=O)[C@H](CC(C)C)NC1=O (HELM PEPTIDE1{A.[CC[C@H](C)[C@@H](N[*:1])C(=O)[*:2]].L.[dW].[dE]}$PEPTIDE1,PEPTIDE1,1:R1-5:R2$$$V2.0)", "UniProt Q29010", "nM", 1400]
]}

P: CCCC[C@@H]1NC(=O)[C@@H](C(C)C)NC(=O)[C@@H]2CCCN2C(=O)[C@@H](CC(=O)O)NC(=O)[C@@H](Cc2c[nH]c3ccccc23)NC1=O (single isomer, unassigned)
Q: CC(C)C[C@@H]1NC(=O)[C@@H](C(C)(C)C)NC(=O)[C@@H]2CCCN2C(=O)[C@@H](CC(=O)O)NC(=O)[C@@H](Cc2c[nH]c3ccccc23)NC1=O (single isomer, unassigned)
Q) Kindly identify the item with the lower IC50 max figure among these two: P and Q Answer format: the label of the selected item.
A) Q
(Q: 15 nM, P: 62 nM)

###

biological target: Endothelin-1 receptor (Sus scrofa); assay: The compound was tested for binding inhibitory activity against Endothelin A receptor from porcine aortic smooth muscle membranes.
Sequence (Q29010 whole entry): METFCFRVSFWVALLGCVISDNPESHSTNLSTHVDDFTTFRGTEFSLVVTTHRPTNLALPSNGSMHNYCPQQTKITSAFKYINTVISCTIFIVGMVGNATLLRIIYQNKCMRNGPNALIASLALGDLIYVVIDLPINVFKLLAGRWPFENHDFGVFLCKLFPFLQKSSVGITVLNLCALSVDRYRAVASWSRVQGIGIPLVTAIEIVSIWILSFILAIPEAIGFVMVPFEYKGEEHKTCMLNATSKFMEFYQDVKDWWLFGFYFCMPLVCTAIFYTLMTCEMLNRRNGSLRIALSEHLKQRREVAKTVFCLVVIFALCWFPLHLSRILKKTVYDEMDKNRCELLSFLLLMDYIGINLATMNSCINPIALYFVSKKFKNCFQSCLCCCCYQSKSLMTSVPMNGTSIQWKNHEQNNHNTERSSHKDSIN
valueType: IC50 max (nM)

In the examples that follow, each entry is paired with its recorded IC50 max.
{"columns": ["molecule", "measuredValue"],
 "data": [
  ["CC(C)C[C@H]1C(=O)N[C@H](Cc2c[nH]c3ccccc23)C(=O)N[C@H](CC(=O)O)C(=O)N2CCC[C@H]2C(=O)N[C@H](C(C)C)C(=O)N1C (single isomer, unassigned)", 35],
  ["CC(C)C[C@@H]1NC(=O)[C@@H](C(C)C)NC(=O)[C@H](C(C)C)NC(=O)[C@@H](CC(=O)O)NC(=O)[C@@H](Cc2c[nH]c3ccccc23)NC1=O (single isomer, unassigned)", 530],
  ["CC(C)C[C@@H]1NC(=O)[C@@H]([C@H](C)O)NC(=O)[C@H](C)NC(=O)[C@@H](CC(=O)O)NC(=O)[C@@H](Cc2c[nH]c3ccccc23)NC1=O", 4200],
  ["CC(C)C[C@@H]1NC(=O)[C@@H](C(C)C)NC(=O)[C@H]([C@@H](C)O)NC(=O)[C@@H](CC(=O)O)NC(=O)[C@@H](Cc2c[nH]c3ccccc23)NC1=O (stereo in doubt)", 270],
  ["CC(C)C[C@@H]1NC(=O)[C@@H](C)NC(=O)[C@@H]2CCCN2C(=O)[C@@H](CC(=O)O)NC(=O)[C@@H](Cc2c[nH]c3ccccc23)NC1=O (single isomer, unassigned)", 260]
]}

a: CC(C)C[C@@H]1NC(=O)[C@@H](C(C)(C)S)NC(=O)[C@@H]2CCCN2C(=O)[C@@H](CC(=O)O)NC(=O)[C@@H](Cc2c[nH]c3ccccc23)NC1=O (single isomer, unassigned)
b: CC(C)C[C@@H]1NC(=O)[C@@H](C(C)C)NC(=O)[C@H](CCCCN)NC(=O)[C@@H](CC(=O)O)NC(=O)[C@@H](Cc2c[nH]c3ccccc23)NC1=O (single isomer, unassigned)
c: CCCC[C@H]1NC(=O)[C@@H]2CCCN2C(=O)[C@@H](CC(=O)O)NC(=O)[C@@H](Cc2c[nH]c3ccccc23)NC(=O)[C@H](CC(C)C)NC1=O (single isomer, unassigned)
d: CC(C)C[C@@H]1NC(=O)[C@@H](C(C)C)NC(=O)C(C)(C)NC(=O)[C@@H](CC(=O)O)NC(=O)[C@@H](Cc2c[nH]c3ccccc23)NC1=O (single isomer, unassigned)
e: CC(C)C[C@@H]1NC(=O)[C@@H](C(C)C)NC(=O)[C@@H]2CCCN2C(=O)[C@@H](CCO)NC(=O)[C@@H](Cc2c[nH]c3ccccc23)NC1=O (single isomer, unassigned)
Q) Put the molecules in ascending order of IC50 max. Reply format: the labels, ordered as requested.
A) a, c, b, d, e
(a: 49 nM, c: 120 nM, b: 200 nM, d: 330 nM, e: 1700 nM)
